Measured TGI accompanies every entry in the list below.
test system: DU-145 prostate; assay: NCI tumour cell line growth inhibition, 48 h

| compound | targetUnderTest | TGI |
| --- | --- | --- |
| COc1ccc2c(c1OC)-c1c(c3ccc([N+](=O)[O-])cc3c(=O)n1CCCN=[N+]=[N-])C2=O | DU-145 prostate | > 100 µM |
| CN1CCN(Cc2ccc(NC(=O)c3[nH]ncc3Nc3ncnc4sccc34)cc2)CC1 | DU-145 prostate | > 100 µM |
| Cn1cnc([N+](=O)[O-])c1SCC(=O)O | DU-145 prostate | > 100 µM |
| COc1ccc2nc3cc([N+](=O)[O-])ccc3c(NNc3ccc(Cl)cc3)c2c1 | DU-145 prostate | > 96.5 µM |
| COc1ccc(NC(=O)c2sc3nc(C)c(C(O)c4ccc(OC)cc4)cc3c2N)cc1 (stereo not given) | DU-145 prostate | > 50 µM |
| O=C(Nc1cccc(C(F)(F)F)c1)c1cccc(NC2=C(Cl)C(=O)N(Cc3ccccc3)C2=O)c1 | DU-145 prostate | > 100 µM |
| COc1cc(-c2nc(SCC(=O)Nc3ccc(C(C)=O)cc3)[nH]c(=O)c2C#N)cc(OC)c1OC | DU-145 prostate | > 100 µM |
| Cc1ccc(S(=O)(=O)NC(=O)NCC(=O)NCC(=O)O)cc1 | DU-145 prostate | > 100 µM |
| CO[C@@](c1ccccc1)(c1nc(C#N)c(N)o1)C(F)(F)F | DU-145 prostate | > 100 µM |
| CCOC(=O)c1cc(C2CCN(CC(C)CC)C2=S)c(C(=O)/C=C(/C)N)[nH]1 (stereo not given) | DU-145 prostate | > 50 µM |

* * *

system: HOP-92 NSCLC; test: NCI tumour cell line growth inhibition, 48 h
Measured TGI accompanies every entry in the list below.

| molecule | targetUnderTest | TGI |
| --- | --- | --- |
| CC1=Nc2c([nH]c(=S)[nH]c2=O)NC(c2ccc(Cl)c(Cl)c2)C1 (stereo not drawn) | HOP-92 NSCLC | > 100 µM |
| CC1(C)C=[N+]([O-])C(C)(C)N1 | HOP-92 NSCLC | > 100 µM |
| O=C(/C=C/c1c(O)ccc2ccccc12)c1cccc2ccccc12 | HOP-92 NSCLC | > 100 µM |

* * *

Measured TGI accompanies every entry in the list below.
tested on: NCI-H226 lung; assay: NCI tumour cell line growth inhibition, 48 h
readoutName: TGI

| compound | recordedValue |
| --- | --- |
| O=C1C=CN(C2OC(CO)C(O)C2O)C(=O)C1 (stereo not given) | > 2500 µM |
| CC1CCCN(CC(O)CN2CCCc3ccccc32)C1 (stereo not given) | > 100 µM |
| CN(C)c1ccc(/C=C2\N=C(N/N=C/c3ccccc3)NC2=O)cc1 | > 100 µM |
| C=C(C)[C@@H]1CC[C@@H](C)[C@](O)([C@@H]2C[C@@H]([C@H](COC(=O)c3ccccc3)OC(=O)c3ccccc3)OC2=O)C1 | > 100 µM |
| O=C1NC(=O)C2(CCC(O)C2)c2cc[n+]([O-])cc21 (stereo not given) | > 100 µM |
| COc1ccc(C2CC(=O)Oc3ccccc3O2)cc1 (stereo not given) | > 100 µM |
| Cc1cnc2[nH]c(-c3ccc(F)cc3)cc(=O)c2c1 | > 84.5 µM |
| CC(=O)c1c(O)ccc2c1CC(CC=O)O2 (stereo not given) | > 100 µM |
| O=C(N=Nc1c(O)[nH]c2c(Cl)cc(Cl)cc12)c1ccncc1 | > 100 µM |
| C[C@H]1C(OCCOC2O[C@@H]3O[C@@]4(C)CC[C@H]5[C@H](C)CCC([C@H]2C)[C@@]35O4)O[C@@H]2O[C@@]3(C)CC[C@H]4[C@H](C)CCC1[C@@]24O3 (stereo not given in full) | > 100 µM |

* * *

test system: HOP-92 NSCLC; assay: NCI tumour cell line growth inhibition, 48 h

| structureSmilesString | targetUnderTest | GI50 |
| --- | --- | --- |
| Oc1ccc(Br)cc1/C=N/NC(=S)NC12CC3CC(CC(C3)C1)C2 | HOP-92 NSCLC | 2350 nM |
| Cc1[nH]nc2c1N=C(c1ccccc1F)c1cc(C#N)ccc1N2 | HOP-92 NSCLC | 672 nM |
| Cc1ccccc1-n1c(/C=C\c2ccccn2)nc2ccccc2c1=O | HOP-92 NSCLC | 3320 nM |

* * *

Measured TGI accompanies every entry in the list below.
system: EKVX NSCLC; assay: NCI tumour cell line growth inhibition, 48 h
readoutName: TGI

| structureSmilesString | targetUnderTest | readoutName | recordedValue |
| --- | --- | --- | --- |
| O=[N+]([O-])/C(Cl)=C(\Nc1ccccc1)C(Cl)=C(Cl)Cl | EKVX NSCLC | TGI | > 100 µM |
| NC(=O)c1csc(CCCCCCc2nc(C(N)=O)cs2)n1 | EKVX NSCLC | TGI | > 100 µM |
| O=C(Nc1cccc2cccnc12)c1ccc(N2C(=O)[C@@H]3[C@H](C2=O)[C@@H]2C=C[C@H]3C2)cc1 | EKVX NSCLC | TGI | > 100 µM |

* * *

system: MDA-MB-435; experiment: NCI tumour cell line growth inhibition, 48 h

| structureSmilesString | TGI |
| --- | --- |
| CCOC(=O)N1c2ccccc2S(=O)(=O)c2ccccc21 | > 100 µM |
| CC(C)(C)C1CCC2(CC1)CCN(CCCN1CCOCC1)CC2 | > 100 µM |
| Cn1cc2c(=O)n3ncn(-c4ccc(Br)cc4)c3nc2n1 | > 100 µM |

* * *

tested on: ACHN renal; assay: NCI tumour cell line growth inhibition, 48 h
readoutName: TGI

| molecule | recordedValue |
| --- | --- |
| CCOC(=O)c1c2c(c(O)c3ccccc3c(O)n(-c3ccc(C)cc3)c1C)C(=O)C=CC2=O | 38.4 µM |
| COc1ccc2[nH]c(-c3cccc(N(C)C)c3)cc(=O)c2c1 | > 100 µM |
| CC(C)C[C@H](NC(=O)CCc1ccccc1)B(O)O | > 100 µM |
| CCn1c(-c2nonc2N)nc2c(C#CC(C)(C)O)nc(O[C@@H](CN)c3ccccc3)cc21 | 4.73 µM |
| NC(=O)C12C3C4C1C1C2C3C41C(N)=O (stereo not drawn) | > 100 µM |
| O=C(O)c1ccccn1 | > 100 µM |
| CC(=O)OCC1OC(n2c3c(c(-c4ccc(Cl)cc4)c(C#N)c2=S)C(=O)CC(C)(C)C3)C(OC(C)=O)C(OC(C)=O)C1OC(C)=O (stereo not drawn) | > 100 µM |
| NC(=O)C(=CN1C(=O)CC(=O)NC1=S)C(N)=O | > 100 µM |

* * *

Measured TGI accompanies every entry in the list below.
tested on: SF-295 CNS; assay: NCI tumour cell line growth inhibition, 48 h

| molecule | targetUnderTest | TGI |
| --- | --- | --- |
| NS(=O)(=O)c1ccc(NC(=O)CC(=O)Nc2ccc(S(N)(=O)=O)cc2)cc1 | SF-295 CNS | > 100 µM |
| OCC(O)COc1c(Cl)ccc(Cl)c1Cl (configuration not stated) | SF-295 CNS | > 100 µM |
| CC1(C)OC(=O)C(C)(C)OC1=O | SF-295 CNS | > 100 µM |
| CC1CCCN(CC(O)CN2CCCc3ccccc32)C1 (configuration not stated) | SF-295 CNS | > 100 µM |
| NC(N)=N/N=C/c1cccc(Cl)c1Cl | SF-295 CNS | 10.3 µM |
| O=C(c1ccco1)c1c(C(F)(F)F)nc2cc(C(F)(F)F)ccc2[n+]1[O-] | SF-295 CNS | 40.4 µM |
| NC1=CC(C(=O)c2ccncc2)c2nc3ccccc3nc21 (configuration not stated) | SF-295 CNS | > 100 µM |
| c1ccc([C@@H]2N[C@@]3(CO[Si](c4ccccc4)(c4ccccc4)c4ccccc4)CC[C@H]4CN[C@@H]2[C@H]43)cc1 | SF-295 CNS | 25 µM |
| O=c1n(-c2ccccc2)c(=O)n2n1C1CCC2CC1 | SF-295 CNS | > 100 µM |
| C=C1C(=O)O[C@H]2[C@H]1[C@H](OC(=O)/C(C)=C\C)C[C@]1(CO1)[C@@H]1[C@H](OC(C)=O)C=C(C)[C@]21O | SF-295 CNS | > 100 µM |
| CN(C)CCNC(=O)c1cccc2nc3c4ccccc4c4ccccc4c3nc12 | SF-295 CNS | 10.1 µM |
| Cc1cc(NC(=O)C(=O)Cc2cnc3ccccc3n2)c(S(=O)(=O)O)cc1Cl | SF-295 CNS | > 100 µM |
| COC1=CC(C2c3cc4c(cc3[C@@H](Nc3ccc([N+](=O)[O-])cc3)C3COC(=O)[C@H]23)OCO4)=CC(=O)C1=O (some centres not stated) | SF-295 CNS | 7.47 µM |
| CO/C(=N\N=C\c1ccc(OC)cc1OC)c1ccncc1 | SF-295 CNS | > 10 µM |
| CCOC(=O)c1cc2cc(NC(=O)c3cc4cc([N+](=O)[O-])ccc4n3C)ccc2n1C | SF-295 CNS | > 100 µM |
| CC(=O)n1nc(-c2nc3ccccc3nc2Cl)cc1Cl | SF-295 CNS | > 93.2 µM |
| CCOC(=O)C1=C(C)N(C)C(=S)NC1c1cccc(O)c1 (configuration not stated) | SF-295 CNS | > 100 µM |

FYI, the data here is from PubChem BioAssay (NCI).
